Source of measurements: patent US9097667B2

Assay: Absorption and emission spectra of the dyes (λabs/λem in H2O)
Type: physicochemical
Settings: Table 5, coumarin-based fluorescent groups
assayMetric: λcm (nm)

COCCOCCOCCOCCOCCOCCOCCOCCOCCOCCOCCOCCN(CCCCCC(=O)ON1C(=O)CCC1=O)C(=O)Cc1c(C)c2cc(S(=O)(=O)O)c(N)cc2oc1=O
442
C=C(Cc1c(C)c2ccc(N)cc2oc1=O)N(CCCCCC(=O)ON1C(=O)CCC1=O)CCOCCOCCOCCOCCOCCOCCOCCOCCOCCOCCOCCOC
442
COCCOCCOCCOCCOCCOCCOCCOCCOCCOCCOCCOCCOCCOCCOCCOCCOCCOCCOCCOCCOCCOCCOCCOCCN(CCCCCC(=O)ON1C(=O)CCC1=O)C(=O)CCCCCN1c2cc3oc(=O)cc(C(F)(F)F)c3cc2C(CS(=O)(=O)O)=CC1(C)C
545
COCCOCCOCCOCCOCCOCCOCCOCCOCCOCCOCCOCCN(CCCCCC(=O)ON1C(=O)CCC1=O)C(=O)c1cc2cc(F)c(O)c(F)c2oc1=O
465
